System: neuron 4B (rhinarial plate on flagellomere 4)
Format: cell-based, Diaphorina citri
Conditions used: Table 1; odor diluted to 1%, 50 μL in cartridge
Test readout: odor response (frequency of action potentials during stimulus minus baseline), 4B

Worked cases, odor response (frequency of action potentials during stimulus minus baseline), 4B given:
[[record]]
compound = "CC(C)=CCCC(C)CC=O (stereo not drawn) [citronellal]"
target_entity = "neuron 4B (rhinarial plate on flagellomere 4)"
result_value = 0

[[record]]
compound = "C=CC(=C)CCC=C(C)C [myrcene]"
target_entity = "neuron 4B (rhinarial plate on flagellomere 4)"
result_value = "+ (+, >50 spikes/second)"

[[record]]
compound = "O=Cc1ccccc1 [benzaldehyde]"
target_entity = "neuron 4B (rhinarial plate on flagellomere 4)"
result_value = "+ (+, >50 spikes/second)"

[[record]]
compound = "C/C1=C\\CC/C(C)=C/CC(C)(C)/C=C/C1 [α-humulene]"
target_entity = "neuron 4B (rhinarial plate on flagellomere 4)"
result_value = 0

[[record]]
compound = "C=C(C)C1CC=C(C)CC1 (single isomer, unassigned; (+)) [(+)-limonene]"
target_entity = "neuron 4B (rhinarial plate on flagellomere 4)"
result_value = "+ (+, >50 spikes/second)"


Fill: odor response (frequency of action potentials during stimulus minus baseline), 4B (neuron 4B (rhinarial plate on flagellomere 4)) for this compound COC(=O)c1ccccc1O [methyl salicylate] + (+, >50 spikes/second)

Fetch value of odor response (frequency of action potentials during stimulus minus baseline), 4B on neuron 4B (rhinarial plate on flagellomere 4) for CCCCCC(C)=O [2-heptanone] . + (+, >50 spikes/second)
